- assay.procedure: Inhibition of ABCB1 in human KB-VIN cells assessed as potentiation of paclitaxel-induced cytotoxicity by measuring paclitaxel IC50 at 5 uM measured after 72 hrs by SRB assay (Rvb = 1762 +/- 63 nM)
Entries and their IC50 values follow.
readout.type: IC50 (nM)

mol_smiles=COc1ccc(-c2cc(OC(C)=O)c3c(-c4cccs4)c(N(C(C)=O)C(C)=O)oc3c2)cc1 readout_type=IC50 unit_label=nM measured_value=597
mol_smiles=COc1ccc(-c2cc(OC(C)=O)c3c(-c4cccs4)c(NC(=O)c4ccccc4Cl)oc3c2)cc1 readout_type=IC50 unit_label=nM measured_value=21
mol_smiles=COc1ccc(-c2cc(OC(C)=O)c3c(-c4cccs4)c(NC(=O)c4ccccc4C)oc3c2)cc1 readout_type=IC50 unit_label=nM measured_value=46
mol_smiles=COc1ccc(-c2cc(OC(C)=O)c3c(-c4cccs4)c(NC(=O)c4cccc(F)c4)oc3c2)cc1 readout_type=IC50 unit_label=nM measured_value=48
